Where do these numbers come from? They come from the supplement of paper PMC5412046.

system: SB.msgc-1; assay: viability at highest tested concentration (MAXR) relative to DMSO; higher = less cytotoxic; details: SB.msgc-1 (sporadic gastric cancer)
So I've got a bunch of compounds here, and I need their viability values.
Answers are plain numbers, in %.

Which measured viability value corresponds to O=C(O)c1ccccc1C(=O)Nc1ccc(-c2ccccc2)cc1 [Kartogenin] (top concentration 46.0829 µM) ?
115

Which measured viability value corresponds to CN(C)c1ccc(C(=O)NCCCCCCC(=O)NO)cc1 [M344] (top concentration 46.0829 µM) ?
2.11

Which measured viability value corresponds to O=C(c1cncc(Br)c1)N1CCC(N2CCCC2)CC1 [UNC669] (top concentration 46.0829 µM) ?
106

Which measured viability value corresponds to Cc1nc(N)ncc1-c1nc(N2CCOCC2)c2sc(C(C)(C)O)cc2n1 [GNE-490] (top concentration 46.0829 µM) ?
49.4

Which measured viability value corresponds to COc1cc([C@@H]2c3cc4c(cc3[C@@H](O[C@@H]3O[C@@H]5CO[C@@H](c6cccs6)O[C@H]5[C@H](O)[C@H]3O)[C@H]3COC(=O)[C@H]23)OCO4)cc(OC)c1O [Teniposide] (top concentration 46.0829 µM) ?
26.6

Which measured viability value corresponds to NC(CO)(CO)CCc1ccc(Sc2cccc(OCc3ccccc3)c2)cc1Cl [KRP 203] (top concentration 46.0829 µM) ?
2.25

Which measured viability value corresponds to CCOC(=O)[C@H](CCc1ccccc1)N[C@@H](C)C(=O)N1[C@H](C(=O)O)C[C@@H]2CCC[C@@H]21 [Ramipril] (top concentration 46.0829 µM) ?
3.96

Proceed to the following item.
Which measured viability value corresponds to CC(C)(O)[C@H]1CC[C@@](C)([C@H]2[C@@H](O)C[C@@]3(C)[C@@H]4C[C@H](O[C@@H]5O[C@H](CO)[C@@H](O)[C@H](O)[C@H]5O)[C@H]5C(C)(C)[C@@H](O[C@@H]6OC[C@@H](O)[C@H](O)[C@H]6O)CC[C@@]56C[C@@]46CC[C@]23C)O1 [Astragaloside A] (top concentration 46.0829 µM) ?
87.9
